Where do these numbers come from? They come from patent US7998974B2.

Molecular target: human SIRT3 (Homo sapiens, UniProt Q9NTG7)
Sequence (Q9NTG7 102-399): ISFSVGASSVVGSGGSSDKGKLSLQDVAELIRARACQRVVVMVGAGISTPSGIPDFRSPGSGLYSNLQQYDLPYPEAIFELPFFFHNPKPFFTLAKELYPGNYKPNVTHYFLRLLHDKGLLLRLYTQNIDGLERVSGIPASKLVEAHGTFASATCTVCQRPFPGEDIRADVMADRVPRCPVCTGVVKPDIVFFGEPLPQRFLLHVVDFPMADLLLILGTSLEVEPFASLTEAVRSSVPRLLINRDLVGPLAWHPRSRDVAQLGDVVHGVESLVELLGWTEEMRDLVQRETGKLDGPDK
Test: Fluorescence polarization assay to identify modulators of SIRT3 activity
Conditions: activation of SIRT3 (Table 5); read-out: ED50 (the source's name)
From the text: A fluorescence polarization assay was used to identify modulators of SIRT3 activity. The same assay may be used to identify modulators of any sirtuin protein. […] The peptide substrate is exposed to a sirtuin protein in the presence of NAD^+ to allow deacetylation of the substrate and render it sensitive to cleavage by trypsin. […] Results are read on a microplate fluorescence polarization reader (Molecular Devices Spectramax MD) with appropriate excitation and emission filters. […]
Below, each entry is listed with its recorded EC50.

Some entries whose results are on file:
>  <compound>
Cc1cccc(C)c1Nc1c(-c2ccc(C#N)cc2)nc2c(C(=O)NC(CC(=O)O)C3CCCCC3)cccn12 (centres unmarked) [Compound 70]

>  <experimental-system>
human SIRT3 (Homo sapiens, UniProt Q9NTG7)

>  <observed-value>
> 150 µM

$$$$
>  <compound>
CCCCNc1c(-c2ccc(F)cc2)nc2c(C(=O)NC(CC(=O)O)c3cccc([N+](=O)[O-])c3)cccn12 (centres unmarked) [Compound 71]

>  <experimental-system>
human SIRT3 (Homo sapiens, UniProt Q9NTG7)

>  <observed-value>
51 to 100 µM

$$$$
>  <compound>
Cc1csc(NC(=O)CSCC(=O)O)c1-c1nc2ccccc2s1 [Compound 5]

>  <experimental-system>
human SIRT3 (Homo sapiens, UniProt Q9NTG7)

>  <observed-value>
101 to 150 µM

$$$$
>  <compound>
CC(=O)Nc1ccc(-c2nc3c(C(=O)NC(CC(=O)O)C4CCCCC4)cccn3c2NCc2ccccc2)cc1 (centres unmarked) [Compound 37]

>  <experimental-system>
human SIRT3 (Homo sapiens, UniProt Q9NTG7)

>  <observed-value>
101 to 150 µM

$$$$
>  <compound>
CC(NC(=O)c1cccn2c(NCC3CCCO3)c(-c3ccc(Cl)cc3)nc12)C(=O)NCCC#N (centres unmarked) [Compound 43]

>  <experimental-system>
human SIRT3 (Homo sapiens, UniProt Q9NTG7)

>  <observed-value>
51 to 100 µM

$$$$

Sample Cc1ccc(C(CC(=O)O)NC(=O)c2ccn3c(NC4CCCCC4)c(-c4ccc(C#N)cc4)nc3c2)cc1 (centres unmarked) [Compound 81] — what was its EC50? 51 to 100 µM

Same for COc1ccc(-c2nc3cc(C(=O)NC(CC(=O)O)C4CCCCC4)ccn3c2NC2CCCCC2)cc1OC (centres unmarked) [Compound 80] 51 to 100 µM

Same for COc1ccc(-c2nc3c(C(=O)NC(CC(=O)O)c4cccc([N+](=O)[O-])c4)cccn3c2NCc2ccccc2)cc1[N+](=O)[O-] (centres unmarked) [Compound 73] 51 to 100 µM
